Target: T1, shFcRn (soluble human FcRn) (human, UniProt P55899 24-297; P61769 21-119)
T1 construct: extracellular domain; Printed only as 'soluble human FcRn'; also called hFcRn (immobilized on a chip)
T1 sequence (P55899 24-297 limits assumed, chain 1 of 2): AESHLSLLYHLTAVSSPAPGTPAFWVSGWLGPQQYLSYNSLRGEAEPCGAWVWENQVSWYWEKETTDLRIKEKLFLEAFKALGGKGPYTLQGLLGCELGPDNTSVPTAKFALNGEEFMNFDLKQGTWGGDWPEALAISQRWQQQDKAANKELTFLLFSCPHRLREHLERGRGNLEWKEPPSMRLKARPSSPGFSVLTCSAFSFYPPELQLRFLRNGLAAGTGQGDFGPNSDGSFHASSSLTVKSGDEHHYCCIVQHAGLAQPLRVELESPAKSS
T1 sequence (P61769 21-119 limits assumed, chain 2 of 2): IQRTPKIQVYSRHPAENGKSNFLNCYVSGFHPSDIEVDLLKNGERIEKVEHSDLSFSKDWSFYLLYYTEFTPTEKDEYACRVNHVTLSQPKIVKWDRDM
Assay: SPR, shFcRn immobilized on chip, antibody as analyte, pH 6.0;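 also: kinetics fitted with a 1:1 Langmuir model, association 200 s and dissociation 600 s, samples diluted in PBST, double-referenced signals, values averaged across three shFcRn-coated cells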
Quantity measured: Kd (nM)
Give your result in nM as a bare value.

Qu. Bench note: what Kd did HL161AN variant No. 15 (LC:N25Q, HC:Q82T) (antibody, human IgG1, V domains shown, Variable domains only) VL: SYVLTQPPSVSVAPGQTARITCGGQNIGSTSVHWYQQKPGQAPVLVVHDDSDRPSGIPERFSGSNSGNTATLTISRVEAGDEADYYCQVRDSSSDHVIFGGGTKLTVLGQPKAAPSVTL VH: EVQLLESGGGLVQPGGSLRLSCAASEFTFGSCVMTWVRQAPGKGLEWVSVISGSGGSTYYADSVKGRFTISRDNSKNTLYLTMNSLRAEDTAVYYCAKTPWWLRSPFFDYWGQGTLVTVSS show?
Ans. 0.265
